ASSAYED_TARGET: Peroxisome proliferator-activated receptor alpha (Homo sapiens) (UniProt Q07869)
Sequence (whole entry): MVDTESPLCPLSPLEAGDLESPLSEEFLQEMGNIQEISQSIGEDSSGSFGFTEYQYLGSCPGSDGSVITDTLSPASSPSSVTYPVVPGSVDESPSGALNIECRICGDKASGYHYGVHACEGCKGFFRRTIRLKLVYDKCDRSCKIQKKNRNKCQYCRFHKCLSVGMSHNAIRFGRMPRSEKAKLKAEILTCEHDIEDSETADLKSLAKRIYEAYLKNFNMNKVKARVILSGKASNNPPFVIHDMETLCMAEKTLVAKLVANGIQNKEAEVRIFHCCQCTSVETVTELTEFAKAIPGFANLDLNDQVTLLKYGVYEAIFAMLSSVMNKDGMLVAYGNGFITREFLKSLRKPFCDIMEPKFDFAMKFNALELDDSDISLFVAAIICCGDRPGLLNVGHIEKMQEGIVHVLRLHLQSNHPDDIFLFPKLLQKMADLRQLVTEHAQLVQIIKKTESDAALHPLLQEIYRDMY
ASSAY_PROCEDURE: Intrinsic activity at PPARalpha receptor expressed in HEK293 cells at 1 uM by GAL4 transactivation assay relative to GW-2331
Format: cell-based
Intrinsic activity below 80% gives condition not met; Intrinsic activity at or above it gives condition met.

- STRUCTURE_NOTATION: "Cc1oc(-c2ccccc2)nc1CCOc1cccc(CN(CC(=O)O)Cc2cc3ccccc3[nH]2)c1"
  CLASS_LABEL: "condition not met"
- STRUCTURE_NOTATION: "Cc1oc(-c2ccccc2)nc1CCOc1cccc(CN(CC(=O)O)Cc2ccc(Oc3ccccc3)cc2)c1"
  CLASS_LABEL: "condition not met"
- STRUCTURE_NOTATION: "Cc1oc(-c2ccccc2)nc1CCOc1cccc(CN(CC(=O)O)Cc2cccc3ccccc23)c1"
  CLASS_LABEL: "condition met"
- STRUCTURE_NOTATION: "Cc1oc(-c2ccccc2)nc1CCOc1cccc(CN(CC(=O)O)Cc2ccccc2)c1"
  CLASS_LABEL: "condition not met"
- STRUCTURE_NOTATION: "Cc1oc(-c2ccccc2)nc1CCOc1ccc(CN(CC(=O)O)Cc2ccc(-c3ccccc3Cl)o2)cc1"
  CLASS_LABEL: "condition not met"
- STRUCTURE_NOTATION: "Cc1oc(-c2ccccc2)nc1CCOc1cccc(CN(CCCc2ccccc2)CC(=O)O)c1"
  CLASS_LABEL: "condition not met"
- STRUCTURE_NOTATION: "Cc1oc(-c2ccccc2)nc1CCOc1ccc(CN(CCOCc2ccccc2)CC(=O)O)cc1"
  CLASS_LABEL: "condition not met"
- STRUCTURE_NOTATION: "Cc1oc(-c2ccccc2)nc1CCOc1ccc(CN(CC(=O)O)Cc2cccc(Oc3ccccc3)c2)cc1"
  CLASS_LABEL: "condition met"
- STRUCTURE_NOTATION: "Cc1oc(-c2ccccc2)nc1CCOc1cccc(CN(CC(=O)O)Cc2ccc(OCc3ccccc3)cc2)c1"
  CLASS_LABEL: "condition not met"
- STRUCTURE_NOTATION: "CCCCCCCN(CC(=O)O)Cc1ccc(OCCc2nc(-c3ccccc3)oc2C)cc1"
  CLASS_LABEL: "condition not met"
- STRUCTURE_NOTATION: "Cc1oc(-c2ccccc2)nc1CCOc1ccc(CN(CC(=O)O)Cc2ccc(OCc3ccccc3)cc2)cc1"
  CLASS_LABEL: "condition met"
- STRUCTURE_NOTATION: "Cc1oc(-c2ccccc2)nc1CCOc1cccc(CN(CC(=O)O)Cc2ccc3ccccc3c2)c1"
  CLASS_LABEL: "condition not met"
